assay: Cynomolgus monkey tolerability, hematology (Example 34); format: in vivo, cynomolgus monkeys; conditions: cynomolgus monkey, in vivo, sc, 35 mg/kg

| SUBSTANCE | PLT |
| --- | --- |
| 1076453 (GTAATATTGCAATCTG; 3-10-3 cEt gapmer, further chemistry not given here) [compound 1076453] | 358 10^3/μL |
| 1198440 (AAGTGTATGTCAGAAG; cEt, 2'-MOE, 5-methylcytosine, phosphorothioate modifications, further chemistry not given here) [compound 1198440] | 420 10^3/μL |
| 958499 (ATTAGAGTATGTGGCA; 3-10-3 cEt gapmer, further chemistry not given here) [compound 958499] | 399 10^3/μL |
| 1198872 (TGTATGTCAGAAGAGT; chemically modified gapmer, further chemistry not given here) [compound 1198872] | 400 10^3/μL |
